# TESTED_SYSTEM: Adenosine receptor A2a (Homo sapiens)
# TEST_NAME: Inhibition of [3H]CGS21680 binding to human adenosine A2A receptor at 0.1 umol/L by scintillation counting
MEASURED_PARAMETER: inhibition (%)

inhibition measured on `COc1ccc(-c2ccc(Cl)cc2)c2cc(C(=O)Nc3ccc(Cn4ccnc4)cc3)oc12` = 33

inhibition measured on `COC(=O)c1ccc(OC)c2oc(C(=O)Nc3ccc(OC)cc3)cc12` = 53

inhibition measured on `COc1ccc(-c2ccccc2)c2cc(C(=O)Nc3c(Cl)cncc3Cl)oc12` = 101

inhibition measured on `COc1ccc(-c2ccccc2)c2cc(C(=O)Nc3ccc(Cn4ccnc4)cc3)oc12` = 64

inhibition measured on `COC(=O)c1ccc(OC)c2oc(C(=O)Nc3ccccc3)cc12` = 49

inhibition measured on `COc1ccc(-c2csc(C)n2)c2cc(C(=O)Nc3ccc(F)cc3)oc12` = 15

inhibition measured on `COc1ccc(-c2ccc(Cl)cc2)c2cc(C(=O)Nc3ccncc3)oc12` = 28

inhibition measured on `COc1ccc(-c2ccc(OC)c3oc(C(=O)Nc4ccc(Cn5ccnc5)cc4)cc23)cc1` = 63

A: COc1ccc(-c2ccccc2)c2cc(NC(=O)Nc3ccc(F)cc3)oc12
B: COc1ccc(NC(=O)c2cc3c(-c4csc(-c5ccccc5)n4)ccc(OC)c3o2)cc1
C: COC(=O)c1ccc(OC)c2oc(C(=O)Nc3cccc(F)c3)cc12
D: COc1ccc(-c2csc(-c3ccc(C)nc3)n2)c2cc(C(=O)Nc3ccc(F)cc3)oc12
E: COc1ccc(-c2csc(-c3ccc(C)nc3)n2)c2cc(C(=O)Nc3ccc(Cn4ccnc4)cc3)oc12
[ask] Parameters: sort_field (inhibition), sort_dir (desc). Dear reader, please state the labels in the requested order.
[reply] C, A, E, B, D

---

# TESTED_SYSTEM: Adenosine receptor A2a (Homo sapiens) (UniProt P29274)
# Sequence (P29274 whole entry): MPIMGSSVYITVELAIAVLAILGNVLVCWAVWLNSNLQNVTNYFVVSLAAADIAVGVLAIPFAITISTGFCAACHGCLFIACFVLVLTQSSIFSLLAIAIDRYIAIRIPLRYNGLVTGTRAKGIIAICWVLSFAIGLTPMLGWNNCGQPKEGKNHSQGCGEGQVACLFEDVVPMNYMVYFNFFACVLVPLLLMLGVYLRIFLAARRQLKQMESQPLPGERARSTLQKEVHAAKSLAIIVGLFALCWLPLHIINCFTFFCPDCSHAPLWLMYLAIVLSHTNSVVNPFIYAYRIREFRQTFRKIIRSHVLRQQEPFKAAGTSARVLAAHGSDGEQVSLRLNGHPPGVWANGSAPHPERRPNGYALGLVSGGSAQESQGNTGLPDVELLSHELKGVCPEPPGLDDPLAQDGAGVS
# TEST_NAME: Inhibition of [3H]CGS21680 binding to human adenosine A2A receptor at 0.1 umol/L by scintillation counting
MEASURED_PARAMETER: inhibition (%)

Please review the entries below; each comes with its answer.
inhibition measured on `COc1ccc(-c2ccccc2)c2cc(NC(=O)Oc3ccc(F)cc3)oc12` = 32

inhibition measured on `CNC(=O)c1cc2c(-c3ccccc3)ccc(OC)c2o1` = 88

inhibition measured on `COC(=O)c1ccc(OC)c2oc(C(=O)Nc3ccc(Cl)cc3)cc12` = 43

P: CCOC(=O)c1ccc(-c2ccc(OC)c3oc(C(=O)Nc4ccccc4)cc23)cc1
Q: COc1ccc(-c2ccccc2)c2cc(NC(C)=O)oc12
R: COc1ccc(-c2ccccc2)c2cc(C(=O)Nc3ccncc3)sc12
S: COc1ccc(-c2ccccc2)c2cc(C(=O)Nc3ccc(Cn4ccnc4)cc3)sc12
T: COc1ccc(-c2ccccc2)c2cc(C(=O)Nc3ccc(F)cc3)oc12
[ask] Let's sort these by inhibition, smallest first. Go ahead? Dear reader, please state the labels in the requested order.
[reply] P, S, R, T, Q
(P: -2%, S: 20%, R: 31%, T: 49%, Q: 91%)

---

# TEST_NAME: Intrinsic clearance in rat liver microsomes
# Format: ADME, Microsome
MEASURED_PARAMETER: CLint scaled (mL/min/kg)

Please review the entries below; each comes with its answer.
CLint scaled measured on `COc1ccc(-c2ccccc2)c2cc(C(=O)NN3CCOCC3)oc12` = 20.3

CLint scaled measured on `COC(=O)c1ccc(OC)c2oc(C(=O)Nc3ccccc3)cc12` = 758

P: COc1ccc(-c2ccccc2)c2cc(C(=O)Nc3ccncc3)oc12
Q: COc1ccc(-c2ccccc2)c2cc(C(=O)Nc3ccc(Cn4ccnc4)cc3)oc12
[ask] Input pair: P , Q . Output: entry with lower CLint scaled. Pick one and reply with its label.
[reply] P

---

# TESTED_SYSTEM: Adenosine receptor A2b (Homo sapiens) (UniProt P29275)
# Sequence (P29275 whole entry): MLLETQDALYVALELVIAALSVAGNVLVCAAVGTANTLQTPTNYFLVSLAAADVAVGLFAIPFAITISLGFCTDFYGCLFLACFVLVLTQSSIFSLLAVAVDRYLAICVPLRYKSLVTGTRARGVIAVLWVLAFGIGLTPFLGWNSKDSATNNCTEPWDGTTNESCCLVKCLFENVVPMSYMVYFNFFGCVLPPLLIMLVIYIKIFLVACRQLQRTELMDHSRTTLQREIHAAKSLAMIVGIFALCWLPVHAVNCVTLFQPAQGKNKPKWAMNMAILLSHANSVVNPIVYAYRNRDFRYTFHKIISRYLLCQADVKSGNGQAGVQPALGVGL
# TEST_NAME: Antagonist activity at human adenosine A2B receptor at 10 umol/L
# Assay type: functional
MEASURED_PARAMETER: inhibition (%)

Log: Adenosine receptor A2b (Homo sapiens) (UniProt P29275), compound `COc1ccc(-c2ccccc2)c2cc(C(=O)Nc3ccc(Cn4ccnc4)cc3)oc12` , inhibition = 1

1: COc1ccc(-c2ccccc2)c2cc(C(=O)Nc3ccncc3)oc12
2: COc1ccc(-c2ccc(OC)c3oc(C(=O)Nc4ccc(Cn5ccnc5)cc4)cc23)cc1
[ask] Input pair: 1 , 2 . Output: entry with lower inhibition. Pick one and reply with its label.
[reply] 2
(2: 4%, 1: 58%)

---

# TESTED_SYSTEM: Adenosine receptor A1 (Homo sapiens)
# TEST_NAME: Antagonist activity at human adenosine A1 receptor at 1 umol/L
# Format: functional
MEASURED_PARAMETER: inhibition (%)

Please review the entries below; each comes with its answer.
Log: Adenosine receptor A1 (Homo sapiens), compound `COc1ccc(-c2ccccc2)c2cc(C(=O)Nc3ccncc3)oc12` , inhibition = 20

Log: Adenosine receptor A1 (Homo sapiens), compound `COc1ccc(-c2ccccc2)c2cc(C(=O)NN3CCOCC3)oc12` , inhibition = 37

a: COc1ccc(-c2ccccc2)c2cc(C(=O)Nc3ccc(Cn4ccnc4)cc3)oc12
b: COc1ccc(-c2ccc(OC)c3oc(C(=O)Nc4ccc(Cn5ccnc5)cc4)cc23)cc1
[ask] Higher inhibition: a or b ? Pick one and reply with its label.
[reply] a
(a: 9%, b: -4%)

---

# TESTED_SYSTEM: Adenosine receptor A2a (Homo sapiens) (UniProt P29274)
# TEST_NAME: Inhibition of [3H]CGS21680 binding to human adenosine A2A receptor at 0.01 umol/L by scintillation counting
MEASURED_PARAMETER: inhibition (%)

inhibition measured on `COC(=O)c1ccc(OC)c2oc(C(=O)Nc3cccc(F)c3)cc12` = 14

inhibition measured on `COC(=O)c1ccc(OC)c2oc(C(=O)Nc3ccccc3)cc12` = 6

inhibition measured on `COc1ccc(-c2ccccc2)c2cc(C(=O)Nc3ccc(Cn4ccnc4)cc3)oc12` = 24

inhibition measured on `COc1ccc(-c2ccccc2)c2cc(C(=O)NN3CCOCC3)oc12` = 39

inhibition measured on `COc1ccc(-c2ccc(Cl)cc2)c2cc(C(=O)Nc3ccncc3)oc12` = 18

I: COc1ccc(-c2ccccc2)c2cc(C(=O)Nc3ccc(F)cc3)oc12
II: COC(=O)c1ccc(OC)c2oc(C(=O)Nc3ccc(Cn4ccnc4)cc3)cc12
III: COc1ccc(-c2csc(C)n2)c2cc(C(=O)Nc3ccc(F)cc3)oc12
[ask] Parameters: sort_field (inhibition), sort_dir (desc). Dear reader, please state the labels in the requested order.
[reply] II, I, III
(II: 40%, I: 13%, III: 1%)

a: COc1ccc(-c2csc(-c3ccc(C)nc3)n2)c2cc(C(=O)Nc3ccc(F)cc3)oc12
b: COc1ccc(NC(=O)c2cc3c(-c4csc(-c5ccccc5)n4)ccc(OC)c3o2)cc1
c: COc1ccc(-c2ccccc2)c2cc(C(=O)Nc3c(Cl)cncc3Cl)oc12
[ask] Let's sort these by inhibition, smallest first. Go ahead? Dear reader, please state the labels in the requested order.
[reply] b, a, c
(b: 6%, a: 17%, c: 83%)

a: COc1ccc(-c2csc(-c3ccc(C)nc3)n2)c2cc(C(=O)Nc3ccc(Cn4ccnc4)cc3)oc12
b: CNC(=O)c1cc2c(-c3ccccc3)ccc(OC)c2o1
c: COC(=O)Nc1cc2c(-c3ccccc3)ccc(OC)c2o1
d: COC(=O)c1ccc(OC)c2oc(C(=O)Nc3ccc(Cl)cc3)cc12
[ask] Let's sort these by inhibition, smallest first. Go ahead? Dear reader, please state the labels in the requested order.
[reply] d, a, c, b
(d: 1%, a: 12%, c: 28%, b: 57%)

I: COc1ccc(-c2ccccc2)c2cc(NC(C)=O)oc12
II: COc1ccc(-c2ccccc2)c2cc(C(=O)Nc3ccncc3)sc12
III: COc1ccc(-c2ccc(OC)c3oc(C(=O)Nc4ccc(Cn5ccnc5)cc4)cc23)cc1
[ask] Parameters: sort_field (inhibition), sort_dir (desc). Dear reader, please state the labels in the requested order.
[reply] I, III, II
(I: 62%, III: 24%, II: 11%)

A: COc1ccc(-c2ccccc2)c2cc(NC(=O)Oc3ccc(F)cc3)oc12
B: COc1ccc(-c2ccccc2)c2cc(NC(=O)Nc3ccc(F)cc3)oc12
[ask] Higher inhibition: A or B ? Pick one and reply with its label.
[reply] B
(B: 22%, A: 11%)

P: COc1ccc(-c2ccccc2)c2cc(C(=O)Nc3ccc(Cn4ccnc4)cc3)sc12
Q: COc1ccc(-c2ccc(Cl)cc2)c2cc(C(=O)Nc3ccc(Cn4ccnc4)cc3)oc12
[ask] Higher inhibition: P or Q ? Pick one and reply with its label.
[reply] P

---

# TESTED_SYSTEM: UniProtKB P29274
# TEST_NAME: Inhibition of [3H]CGS21680 binding to human adenosine A2A receptor at 1 umol/L by scintillation counting
MEASURED_PARAMETER: inhibition (%)

inhibition measured on `COC(=O)c1ccc(OC)c2oc(C(=O)Nc3ccc(Cl)cc3)cc12` = 77

inhibition measured on `CCOC(=O)c1ccc(-c2ccc(OC)c3oc(C(=O)Nc4ccccc4)cc23)cc1` = -8

inhibition measured on `COC(=O)c1ccc(OC)c2oc(C(=O)Nc3ccc(OC)cc3)cc12` = 91

inhibition measured on `COc1ccc(-c2ccc(OC)c3oc(C(=O)Nc4ccc(Cn5ccnc5)cc4)cc23)cc1` = 90

inhibition measured on `COC(=O)c1ccc(OC)c2oc(C(=O)Nc3ccc(Cn4ccnc4)cc3)cc12` = 98

a: COc1ccc(-c2csc(-c3ccc(C)nc3)n2)c2cc(C(=O)Nc3ccc(F)cc3)oc12
b: COc1ccc(-c2ccccc2)c2cc(C(=O)Nc3ccc(Cn4ccnc4)cc3)oc12
[ask] Input pair: a , b . Output: entry with lower inhibition. Pick one and reply with its label.
[reply] a
(a: 4%, b: 95%)

I: COc1ccc(-c2csc(-c3ccc(C)nc3)n2)c2cc(C(=O)Nc3ccc(Cn4ccnc4)cc3)oc12
II: COc1ccc(-c2csc(C)n2)c2cc(C(=O)Nc3ccc(F)cc3)oc12
III: COC(=O)c1ccc(OC)c2oc(C(=O)Nc3ccccc3)cc12
[ask] Let's sort these by inhibition, smallest first. Go ahead? Dear reader, please state the labels in the requested order.
[reply] I, II, III
